procedureSummary: Half life period is estimated
Format: ADME
property: half-life (h)

1. CNCCC=C1c2ccccc2CCc2ccccc21 : 35.5
2. CN(C)CC/C=C1/c2ccccc2COc2ccccc21 [DOXEPIN] : 16.5
3. CNCCCN1c2ccccc2CCc2ccccc21 : 37.5
4. CN(C)CCC=C1c2ccccc2CCc2ccccc21 : 27.5
5. CN1CCN2c3ccccc3Cc3ccccc3C2C1 (stereo not given) : 25

---

procedureSummary: Compound was tested for its binding affinity towards brain (Hippocampus) Adenylate cyclase
Design: species or system Cavia porcellus
Consider the cut-off 200 nM. If the recorded Ki is strictly smaller, the label is Condition met; if not, the label is Condition not met.

1. CN1CCN2c3ccccc3Cc3ccccc3C2C1 (configuration not stated) : Condition met
2. CN(C)CCC=C1c2ccccc2CCc2ccccc21 : Condition met
3. CN(C)CC/C=C1/c2ccccc2COc2ccccc21 [DOXEPIN] : Condition met
4. CNCCCN1c2ccccc2CCc2ccccc21 : Condition not met
5. CNCCC=C1c2ccccc2CCc2ccccc21 : Condition not met
6. CN(C)CCCN1c2ccccc2CCc2ccccc21 : Condition met
7. CN(C)CCCN1c2ccccc2CCc2ccc(Cl)cc21 : Condition met
